Target: hCB1R (Homo sapiens, UniProt P21554)
Sequence (P21554 whole entry): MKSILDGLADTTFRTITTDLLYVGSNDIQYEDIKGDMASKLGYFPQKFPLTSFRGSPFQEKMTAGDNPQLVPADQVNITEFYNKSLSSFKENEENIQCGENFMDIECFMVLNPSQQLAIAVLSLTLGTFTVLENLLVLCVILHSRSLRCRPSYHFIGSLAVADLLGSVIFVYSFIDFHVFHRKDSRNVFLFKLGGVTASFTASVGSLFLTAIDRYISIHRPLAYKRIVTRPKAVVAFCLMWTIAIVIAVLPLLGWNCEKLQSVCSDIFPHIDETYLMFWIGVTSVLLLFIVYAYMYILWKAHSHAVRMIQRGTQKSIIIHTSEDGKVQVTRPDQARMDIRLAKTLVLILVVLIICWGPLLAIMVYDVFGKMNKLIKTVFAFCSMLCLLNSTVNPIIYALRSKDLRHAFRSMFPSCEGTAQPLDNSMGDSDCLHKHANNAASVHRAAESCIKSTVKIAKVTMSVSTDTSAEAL
Assay: Binding to the CB1 receptor ([3H]-SR141716A displacement)
pKi: −log10 of the molar value.

- COMPOUND: "CC1(C)C(=O)N(c2ccc(C#N)c(C(F)(F)F)c2)C(=O)N1Cc1ccccc1Nc1cccc(C(F)(F)F)c1"
  pKi: 7.85
- COMPOUND: "CC1(C)C(=O)N(c2ccc(C#N)c(C(F)(F)F)c2)C(=O)N1Cc1ccccc1Nc1ccc(F)cc1F"
  pKi: 9.00
- COMPOUND: "COc1ccc(Nc2ccc(C#N)c(C(F)(F)F)c2)c(CN2C(=O)N(c3ccc(C#N)c(C(F)(F)F)c3)C(=O)C2(C)C)c1"
  pKi: 7.62
- COMPOUND: "CC1(C)C(=O)N(c2ccc(C#N)c(C(F)(F)F)c2)C(=O)N1Cc1ccccc1Nc1ccc(Oc2ccccc2)cc1"
  pKi: 8.70
- COMPOUND: "CC1(C)C(=O)N(c2ccc(C#N)c(C(F)(F)F)c2)C(=O)N1Cc1ccccc1Nc1ccc(C(=O)O)cc1"
  pKi: 7.80
- COMPOUND: "CC1(C)C(=O)N(c2ccc(C#N)c(C(F)(F)F)c2)C(=O)N1Cc1cc(C(F)(F)F)ccc1Nc1ccc(Cl)cc1"
  pKi: 8.30
- COMPOUND: "CC1(C)C(=O)N(c2ccc(C#N)c(C(F)(F)F)c2)C(=O)N1Cc1ccccc1Nc1ccc(S(N)(=O)=O)cc1"
  pKi: 7.80
- COMPOUND: "CC1(C)C(=O)N(c2ccc(C#N)c(C(F)(F)F)c2)C(=O)N1Cc1cc(F)ccc1Nc1ccccc1"
  pKi: 8.30
- COMPOUND: "COC(=O)c1cc(Nc2ccccc2CN2C(=O)N(c3ccc(C#N)c(C(F)(F)F)c3)C(=O)C2(C)C)ccc1OC"
  pKi: 8.00
- COMPOUND: "CC1(C)C(=O)N(c2ccc(C#N)c(C(F)(F)F)c2)C(=O)N1Cc1ccc(C(F)(F)F)cc1Nc1ccc(F)cc1"
  pKi: 8.10
- COMPOUND: "CC1(C)C(=O)N(c2ccc(C#N)c(C(F)(F)F)c2)C(=O)N1Cc1ccccc1Nc1ccc([N+](=O)[O-])cc1"
  pKi: 9.00
- COMPOUND: "CC(C)(C)c1cc(N2C(=O)N(Cc3ccccc3Nc3ccccc3)C(C)(C)C2=O)ccc1C#N"
  pKi: 8.05
- COMPOUND: "CC1OC(=O)c2cc(Nc3ccccc3CN3C(=O)N(c4ccc(C#N)c(C(F)(F)F)c4)C(=O)C3(C)C)ccc2O1 (stereo not shown)"
  pKi: 8.52
- COMPOUND: "COc1ccc(Nc2ccc(C(F)(F)F)cc2)c(CN2C(=O)N(c3ccc(C#N)c(C(F)(F)F)c3)C(=O)C2(C)C)c1"
  pKi: 7.82
- COMPOUND: "CC(C)(C)c1cc(N2C(=O)N(Cc3ccccc3Nc3ccc(F)cc3F)C(C)(C)C2=O)ccc1C#N"
  pKi: 8.30
- COMPOUND: "CC1(C)C(=O)N(c2ccc(C#N)c(C(F)(F)F)c2)C(=O)N1Cc1ccccc1Nc1ccc(C(=O)NCCCS(C)(=O)=O)cc1"
  pKi: 7.47
- COMPOUND: "COC(=O)c1ccc(Nc2cc(F)ccc2CN2C(=O)N(c3ccc(C#N)c(C)c3)C(=O)C2(C)C)cc1"
  pKi: 8.52
- COMPOUND: "CC1(C)C(=O)N(c2ccc(C#N)c(S(F)(F)(F)(F)F)c2)C(=O)N1Cc1ccccc1Nc1ccc(F)cc1F"
  pKi: 8.70
- COMPOUND: "CC1(C)C(=O)N(c2ccc(C#N)c(C(F)(F)F)c2)C(=O)N1Cc1ccccc1Nc1ccc(C(=O)NC(CO)CO)cc1"
  pKi: 7.29
- COMPOUND: "COC(=O)c1ccc(Nc2ccccc2CN2C(=O)N(c3ccc(C#N)c(C(F)(F)F)c3)C(=O)C2(C)C)cc1"
  pKi: 9.00
- COMPOUND: "CC(C)(C)OC(=O)c1ccc(Nc2cc(C#N)ccc2CN2C(=O)N(c3ccc(C#N)c(C(F)(F)F)c3)C(=O)C2(C)C)cc1"
  pKi: 7.64
- COMPOUND: "CC1(C)C(=O)N(c2ccc(C#N)c(C(F)(F)F)c2)C(=O)N1Cc1ccccc1Nc1ccc(C(=O)NCC(N)=O)cc1"
  pKi: 8.10
